Target: SMYD3 (Homo sapiens)
Sequence (Q9H7B4 whole entry): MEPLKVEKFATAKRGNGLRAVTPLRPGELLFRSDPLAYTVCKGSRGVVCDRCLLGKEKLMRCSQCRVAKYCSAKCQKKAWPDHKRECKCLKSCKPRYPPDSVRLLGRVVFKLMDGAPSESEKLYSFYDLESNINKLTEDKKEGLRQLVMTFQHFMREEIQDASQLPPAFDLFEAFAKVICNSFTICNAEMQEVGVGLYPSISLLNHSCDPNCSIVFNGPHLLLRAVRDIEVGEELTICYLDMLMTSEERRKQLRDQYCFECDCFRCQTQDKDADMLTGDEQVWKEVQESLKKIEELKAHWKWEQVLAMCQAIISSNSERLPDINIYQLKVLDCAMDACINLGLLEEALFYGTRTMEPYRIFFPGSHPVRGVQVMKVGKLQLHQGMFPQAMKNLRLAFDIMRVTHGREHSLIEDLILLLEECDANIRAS
Experiment: SMYD3 biochemical assay (MTase-Glo, MAP3K2 peptide substrate)
Settings: Table 3; MTase assay, MAP3K2 peptide substrate; read-out: IC50
pIC50: −log10 of the molar value.
Reported pIC50 values follow for various molecules
measurement-label: pIC50

{"columns": ["molecule", "measurement"],
 "data": [
  ["CCCOC(=O)N1CCN(C(=O)c2ccc3c(Cl)cc(-c4ccc(C(=O)N(C)C)cc4)nc3c2)C[C@H]1C [B082]", 6.16],
  ["CCCOC(=O)N1CCN(C(=O)c2ccc3c(Cl)cc(-c4ccc5[nH]ncc5c4)nc3c2)CC1 [B128]", 7.28],
  ["CCCOC(=O)N1CCN(C(=O)c2ccc3c(Cl)cc(-c4cnc5[nH]c(C)cc5c4)nc3c2)CC1 [B175]", 6.40],
  ["CCCOC(=O)N1CCN(C(=O)c2ccc3c(Cl)cc(-c4ccc5ocnc5c4)nc3c2)[C@@H](C)C1 [B241]", 6.62],
  ["CCCOC(=O)N1CCN(C(=O)c2ccc3c(Cl)c(C)c(-c4ccc(C#N)cc4)nc3c2)C[C@H]1C [B114]", 6.38],
  ["CCCOC(=O)N1CCN(C(=O)c2ccc3c(Cl)c4c(nc3c2)CCCC4)C(C(F)(F)F)C1 (centres unmarked) [A064]", 6.15],
  ["CCCOC(=O)N1CCN(C(=O)c2ccc3c(Cl)cc(-c4ccc(C#N)c(C)c4)nc3c2)CC1 [B101]", 5.74],
  ["CCCOC(=O)N1CCN(C(=O)c2ccc3c(Cl)cc(-c4ccc(N(C)C)cc4)nc3c2)[C@@H](C)C1 [B076]", 6.72]
]}
